# PROTOCOL DESCRIPTION: Water solubility
# Type: physicochemical
# TEST CONDITIONS: 25° C.
READOUT TYPE: Solubility @ 25° C. (%)
Give the value in % but do not write % after it.

Worked cases, answers included:
| COMPOUND | UNITS SYMBOL | Solubility @ 25° C. |
| --- | --- | --- |
| O=S(=O)([O-])OC(O)(O)C(O)(O)OS(=O)(=O)[O-].[Na+].[Na+] | % | 31.5 |
| O=S(=O)([O-])OOC(O)C(O)(OS(=O)(=O)[O-])C(C(O)OS(=O)(=O)[O-])C(O)OS(=O)(=O)[O-].[Na+].[Na+].[Na+].[Na+] (stereo not drawn) | % | 40.1 |
| O=S(=O)([O-])OC(O)C(C(O)OS(=O)(=O)[O-])C(O)OS(=O)(=O)[O-].[Na+].[Na+].[Na+] (stereo not drawn) | % | 36.2 |
| O=S(=O)([O-])OC(O)C(O)(OS(=O)(=O)[O-])C(O)(OS(=O)(=O)[O-])C(O)OS(=O)(=O)[O-].[Na+].[Na+].[Na+].[Na+] (stereo not drawn) | % | 27.3 |
| O=S(=O)(O)OC(O)(O)C(O)(O)OS(=O)(=O)O [Tetra Hydroxy Ethyl Di Sulphate] | % | 48.0 |

Input: Report Solubility @ 25° C., nothing else, for this compound: O=S(=O)(O)OC(O)C(C(O)OS(=O)(=O)O)C(O)OS(=O)(=O)O (stereo not drawn) [Tri Hydroxy Isobutyl 1,2,3-Tri Sulphate]
Output: 56.7

Input: Please give measured Solubility @ 25° C. of the following entry: O=S(=O)(O)OOC(O)C(O)(OS(=O)(=O)O)C(C(O)OS(=O)(=O)O)C(O)OS(=O)(=O)O (stereo not drawn)
Output: 61.2

Input: Let me know recorded Solubility @ 25° C. for O=S(=O)(O)OC(OS(=O)(=O)O)(OS(=O)(=O)O)C(OS(=O)(=O)O)(OS(=O)(=O)O)OS(=O)(=O)O [EHS, Ethyl Hexa Sulphate acid (EHS)] , thanks.
Output: 48

Input: Write down Solubility @ 25° C. measured for item O=S(=O)(O)OC(O)C(O)(OS(=O)(=O)O)C(O)(OS(=O)(=O)O)C(O)OS(=O)(=O)O (stereo not drawn)
Output: 39.6

---

# PROTOCOL DESCRIPTION: pH of 30% solution
# Type: physicochemical
READOUT TYPE: pH of 30% solution

Input: // fetch pH of 30% solution given entry O=S(=O)([O-])OC(O)C(O)(OS(=O)(=O)[O-])C(O)(OS(=O)(=O)[O-])C(O)OS(=O)(=O)[O-].[Na+].[Na+].[Na+].[Na+] (stereo not drawn)
Output: 0.0-1.0

Input: Give me measured pH of 30% solution, please, for this compound: O=S(=O)([O-])OC(O)C(C(O)OS(=O)(=O)[O-])C(O)OS(=O)(=O)[O-].[Na+].[Na+].[Na+] (stereo not drawn)
Output: 0.0-1.0

---

Overview of reported pH of 30% solution across a group of compounds:
# PROTOCOL DESCRIPTION: pH of 30% solution
# Assay type: physicochemical

Examples from the recorded data:
| COMPOUND | RESULT |
| --- | --- |
| O=S(=O)(O)OC(O)C(O)(OS(=O)(=O)O)C(O)(OS(=O)(=O)O)C(O)OS(=O)(=O)O (stereo not shown) | <0.0 |
| O=S(=O)([O-])OC(O)(O)C(O)(O)OS(=O)(=O)[O-].[Na+].[Na+] | 0.5-1.5 |
| O=S(=O)(O)OC(OS(=O)(=O)O)(OS(=O)(=O)O)C(OS(=O)(=O)O)(OS(=O)(=O)O)OS(=O)(=O)O [EHS, Ethyl Hexa Sulphate acid (EHS)] | 0.0 |
| O=S(=O)(O)OOC(O)C(O)(OS(=O)(=O)O)C(C(O)OS(=O)(=O)O)C(O)OS(=O)(=O)O (stereo not shown) | <0 |
| O=S(=O)([O-])OOC(O)C(O)(OS(=O)(=O)[O-])C(C(O)OS(=O)(=O)[O-])C(O)OS(=O)(=O)[O-].[Na+].[Na+].[Na+].[Na+] (stereo not shown) | 0.0-0.5 |
| O=S(=O)(O)OC(O)(O)C(O)(O)OS(=O)(=O)O [Tetra Hydroxy Ethyl Di Sulphate] | <0.5 |

Let's switch to this compound now.
Input: Give recorded pH of 30% solution. O=S(=O)(O)OC(O)C(C(O)OS(=O)(=O)O)C(O)OS(=O)(=O)O (stereo not shown) [Tri Hydroxy Isobutyl 1,2,3-Tri Sulphate]
Output: <0.0

Where these numbers come from: patent US9950998B2
